Numbers sourced from paper PMC9482650.

- MEASURED_TARGET: LNX1_1, Q8TBB1
- Sequence (Q8TBB1 261-371): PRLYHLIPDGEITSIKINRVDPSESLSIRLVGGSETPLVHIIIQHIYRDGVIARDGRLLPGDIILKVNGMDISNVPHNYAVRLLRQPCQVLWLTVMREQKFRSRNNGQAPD
- ASSAY_METHOD_TEXT: holdup assay
- Design: key: below the threshold = too weak to quantify, mostly under pKd 3.1 to 4
- PROTOCOL_CONDITIONS: plain residues with an end cap or a label only (N-terminal biotin on a linker: ttds)
QUANTITY_KIND: pKd

Consider the reported pKd for these binders:
                          binder               result
0    TVASEKESVM [SLC1A5, Q15758]  below the threshold
1   PKTPPTDTSV [KIR3DL3, Q8N743]  below the threshold
2  SRPQRTQTQV [HPV67-E6, A4U7F2]  below the threshold
3   SVWLRKETRV [CYSLTR2, Q9NS75]                 3.59
4     RSLEEEESQL [GRASP, Q7Z6J2]  below the threshold
5  SSRTRRETQL [HPV16-E6, P03126]                 3.51

The recorded pKd for entry IDNDTESTAL [ARHGAP17, Q68EM7] equals below the threshold

Measured pKd, ERKLSSESQV [LRP4, O75096] : below the threshold

Value of pKd reported for the binder VLRLQSETSV [VANGL1, Q8TAA9] is below the threshold
